Molecular target: MPXV B6R ectodomain, His-tagged recombinant protein (mpox virus (MPXV), isolate MPXV_USA_2022_MA001)
Assay: SPR; BiaCore T200; […]; 1:1 binding model
log10(kon) values by entry
A difference of one corresponds to tenfold kon; all values are log10 with kon in M⁻¹ s⁻¹.

Example entries begin here.
Nanobody B6R-03 (VHH) VHH: QVQLVESGGGLVQAGGSLRLSCAASGRILHRKGMGWYRQAPGKEREFVAAINKGGSTNYADSVKGRFTISRDNAKNTVYLQMNSLKPEDTAVYYCAVGKKRRTWINRHYDYWGQGTQVTVSS: 5.04
Nanobody B6R-05 (VHH) VHH: QVQLVESGGGLVQAGGSLRLSCAASGRIFHPGAMGWYRQAPGKEREFVAGISSGGNTYYADSVKGRFTISRDNAKNTVYLQMNSLKPEDTAVYYCAAPFRWVKATGRFLDYWGQGTQVTVSS: 0.95
Nanobody B6R-02 (VHH) VHH: QVQLVESGGGLVQAGGSLRLSCAASGRIFRRNVMGWYRQAPGKEREFVAAITKGGYTNYADSVKGRFTISRDNAKNTVYLQMNSLKPEDTAVYYCAARYFHRKRHKWRHDYWGQGTQVTVSS: 2.32

For the binder shown here, Nanobody B6R-04 (VHH) VHH: QVQLVESGGGLVQAGGSLRLSCAASGRIFASDRMGWYRQAPGKEREFVAAISYGSRTNYADSVKGRFTISRDNAKNTVYLQMNSLKPEDTAVYYCAVWAFHRSWKERSHWHDYWGQGTQVTVSS , give the reported log10(kon).
4.60

Could you share which log10(kon) value was measured for Nanobody B6R-06 (VHH) VHH: QVQLVESGGGLVQAGGSLRLSCAASGRIFRKRNMGWYRQAPGKEREFVASISRGSNTYYADSVKGRFTISRDNAKNTVYLQMNSLKPEDTAVYYCAVWRHRTFVRWKHFDYWGQGTQVTVSS ?
5.66

Data origin, for the record: paper PMC11937253
